These data points were gathered from patent US7781591B2.

// values below are reported log10 of IC50
biological target: human PKCθ full length enzyme (Homo sapiens, UniProt Q04759); construct: human PKCθ full length enzyme (Panvera Cat# P2996); purchased Panvera P2996; test: PKCθ IMAP assay (fluorescence polarization); type: biochemical; conditions: human PKCθ full length enzyme, IMAP; average value; read-out: IC50 PKCθ IMAP
Sequence (Q04759 whole entry): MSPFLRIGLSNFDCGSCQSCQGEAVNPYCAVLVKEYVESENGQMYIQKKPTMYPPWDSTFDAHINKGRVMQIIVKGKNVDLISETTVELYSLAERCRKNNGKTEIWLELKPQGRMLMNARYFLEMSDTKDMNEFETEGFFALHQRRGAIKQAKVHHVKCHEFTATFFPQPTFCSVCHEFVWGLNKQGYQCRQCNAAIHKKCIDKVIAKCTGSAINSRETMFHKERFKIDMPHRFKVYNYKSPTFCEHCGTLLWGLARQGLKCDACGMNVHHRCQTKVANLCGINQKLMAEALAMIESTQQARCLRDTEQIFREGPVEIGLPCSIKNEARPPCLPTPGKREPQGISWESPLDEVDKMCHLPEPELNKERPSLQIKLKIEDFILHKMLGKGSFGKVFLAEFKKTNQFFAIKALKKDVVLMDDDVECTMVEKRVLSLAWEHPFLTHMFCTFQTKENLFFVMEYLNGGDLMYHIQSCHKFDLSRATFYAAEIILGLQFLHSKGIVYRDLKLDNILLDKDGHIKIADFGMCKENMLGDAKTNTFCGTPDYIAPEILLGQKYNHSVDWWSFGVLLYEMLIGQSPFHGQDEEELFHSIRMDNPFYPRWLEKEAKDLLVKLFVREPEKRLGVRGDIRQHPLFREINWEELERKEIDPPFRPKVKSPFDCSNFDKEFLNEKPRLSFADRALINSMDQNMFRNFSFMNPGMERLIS
Field: value | Transform: log10 | Quantity: IC50 | Unit: nM

Check out these entries, answers already filled in.
Compound smiles	Quantity kind	Meas value
Cc1c(Nc2c(C#N)cncc2-c2ccc(N(C)C)cc2)ccc2[nH]ccc12	log10 of IC50	1.18
Cc1c(Nc2c(C#N)cncc2-c2ccccn2)ccc2[nH]ccc12	log10 of IC50	1.34
COc1ccc(-c2cncc(C#N)c2NC[C@H]2CC[C@H](CN)CC2)cc1OC	log10 of IC50	2.72

Ask: Please give the measured log10 of IC50 for this compound: N#Cc1cncc(-c2cccc(-c3ccc(C(=O)N4CCCC4)cc3)c2)c1Nc1ccc2[nH]ccc2c1
Result: 2.71

Ask: Please give the measured log10 of IC50 for this compound: CNCCNC(=O)c1ccc(-c2cccc(-c3cncc(C#N)c3Nc3ccc4[nH]ccc4c3)c2)cc1
Result: 2.52

Ask: Please give the measured log10 of IC50 for this compound: COc1ccc(-c2cncc(C#N)c2Nc2ccc3[nH]ccc3c2C)cc1OC
Result: 0.78

Ask: Please give the measured log10 of IC50 for this compound: COc1ccc(-c2cncc(C#N)c2Nc2cccc3[nH]ccc23)cc1OCCN1CCC(O)CC1
Result: 1.48

Ask: Please give the measured log10 of IC50 for this compound: CN(C)S(=O)(=O)c1ccccc1-c1cncc(C#N)c1Nc1cccc2[nH]ccc12
Result: 3.13
